Give measured pIC50 for each item. Keep answers brief.
assayed_system: NS3/NS4 complexes (Hepatitis C virus genotype 1a, UniProt P27958)
Sequence (P27958 1027-1657): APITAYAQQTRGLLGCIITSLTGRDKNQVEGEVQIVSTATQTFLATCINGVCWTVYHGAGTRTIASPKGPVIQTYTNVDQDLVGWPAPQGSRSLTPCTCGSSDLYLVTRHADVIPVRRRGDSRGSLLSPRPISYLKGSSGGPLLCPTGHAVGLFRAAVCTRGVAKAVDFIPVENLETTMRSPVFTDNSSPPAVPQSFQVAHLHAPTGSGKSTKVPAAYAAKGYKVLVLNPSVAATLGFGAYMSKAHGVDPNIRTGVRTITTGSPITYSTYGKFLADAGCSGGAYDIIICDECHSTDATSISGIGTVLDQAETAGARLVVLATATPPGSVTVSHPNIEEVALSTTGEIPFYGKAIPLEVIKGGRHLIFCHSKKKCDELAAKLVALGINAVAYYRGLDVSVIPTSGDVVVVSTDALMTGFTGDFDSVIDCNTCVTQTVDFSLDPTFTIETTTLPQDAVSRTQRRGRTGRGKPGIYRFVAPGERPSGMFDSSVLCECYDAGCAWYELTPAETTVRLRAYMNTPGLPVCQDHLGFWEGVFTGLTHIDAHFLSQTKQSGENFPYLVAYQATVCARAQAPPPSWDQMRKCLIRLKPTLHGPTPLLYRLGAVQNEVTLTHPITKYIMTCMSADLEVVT
Sequence (P27958 1658-1711): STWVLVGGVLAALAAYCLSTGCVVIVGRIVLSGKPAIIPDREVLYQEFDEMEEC
assay_summary: NS3/NS4 inhibition activity (IC50)
Type: biochemical
assay_setup: Table 3, read-out: IC50
pIC50: −log10 of the molar value.

Consider the compound CC(C)n1c(O[C@@H]2C[C@H]3C(=O)N[C@]4(C(=O)NS(=O)(=O)N(C)C)C[C@H]4/C=C\CCCCC[C@H](NC(=O)OC(C)(C)C)C(=O)N3C2)nc2ccncc21 tested on NS3/NS4 complexes (Hepatitis C virus genotype 1a, UniProt P27958); state its pIC50.
> 8.00

Please give pIC50, item by item, for the list that follows.
1. COc1ccc2oc(O[C@@H]3C[C@H]4C(=O)N[C@]5(C(=O)NS(=O)(=O)C6CC6)C[C@H]5/C=C\CCCCC[C@H](NC(=O)OC(C)(C)C)C(=O)N4C3)nc2c1
2. Cc1ccc2oc(O[C@@H]3C[C@H]4C(=O)N[C@]5(C(=O)O)C[C@H]5/C=C\CCCCC[C@H](NC(=O)OC(C)(C)C)C(=O)N4C3)nc2c1
3. CNC(=O)COc1ccccc1S(=O)(=O)NC(=O)[C@@]12C[C@H]1/C=C\CCCCC[C@H](NC(=O)OC(C)(C)C)C(=O)N1C[C@H](O)C[C@H]1C(=O)N2
4. CO[C@@H]1C[C@H]2C(=O)N[C@]3(C(=O)NS(=O)(=O)C4(C)CC4)C[C@H]3/C=C\CCCCC[C@H](NC(=O)OC(C)(C)C)C(=O)N2C1
5. CC(C)(C)c1cccc(N[C@H]2CCCCC/C=C\[C@@H]3C[C@@]3(C(=O)NS(=O)(=O)C3(C)CC3)NC(=O)[C@@H]3C[C@@H](OC(=O)N4Cc5cccc(F)c5C4)CN3C2=O)c1
6. CC(C)(C)OC(=O)N[C@H]1CCCCC/C=C\[C@@H]2C[C@@]2(C(=O)NS(=O)(=O)C2(C)CC2)NC(=O)[C@@H]2C[C@@H](Oc3nc4ccccc4n3Cc3ccccc3)CN2C1=O
7. CC1(S(=O)(=O)NC(=O)[C@@]23C[C@H]2/C=C\CCCCC[C@H](Nc2nc4ccccc4o2)C(=O)N2C[C@H](OC(=O)N4Cc5cccc(F)c5C4)C[C@H]2C(=O)N3)CC1
8. CCn1c(O[C@@H]2C[C@H]3C(=O)N[C@]4(C(=O)NS(=O)(=O)C5(C)CC5)C[C@H]4/C=C\CCCCC[C@H](NC(=O)OC(C)(C)C)C(=O)N3C2)nc2ccccc21

["> 8.00", "< 7.00", "< 7.00", "< 7.00", "> 8.00", "> 8.00", "> 8.00", "> 8.00"]

Please give pIC50, item by item, for the list that follows.
1. CC(C)n1c(O[C@@H]2C[C@H]3C(=O)N[C@]4(C(=O)NS(=O)(=O)N(C)C)C[C@H]4/C=C\CCCCC[C@H](NC(=O)OC(C)(C)C)C(=O)N3C2)nc2c(F)cccc21
2. CC(C)n1c(O[C@@H]2C[C@H]3C(=O)N[C@]4(C(=O)NS(=O)(=O)C5(C)CC5)C[C@H]4/C=C\CCCCC[C@H](NC(=O)OC(C)(C)C)C(=O)N3C2)nc2ccccc21
3. CC(C)(C)OC(=O)N[C@H]1CCCCC/C=C\[C@@H]2C[C@@]2(C(=O)NS(=O)(=O)C2(C)CC2)NC(=O)[C@@H]2C[C@@H](Oc3nc4ccc(Br)cc4s3)CN2C1=O
4. COc1ccc2nc(O[C@@H]3C[C@H]4C(=O)N[C@]5(C(=O)NS(=O)(=O)C6(C)CC6)C[C@H]5/C=C\CCCCC[C@H](NC(=O)OC(C)(C)C)C(=O)N4C3)sc2c1
5. CC1(S(=O)(=O)NC(=O)[C@@]23C[C@H]2/C=C\CCCCC[C@H](Nc2ccc(C(F)(F)F)cc2)C(=O)N2C[C@H](OC(=O)N4Cc5cccc(F)c5C4)C[C@H]2C(=O)N3)CC1
6. Cc1cccc(N[C@H]2CCCCC/C=C\[C@@H]3C[C@@]3(C(=O)NS(=O)(=O)C3(C)CC3)NC(=O)[C@@H]3C[C@@H](OC(=O)N4Cc5cccc(F)c5C4)CN3C2=O)c1
7. CC(C)(C)OC(=O)N[C@H]1CCCCC/C=C\[C@@H]2C[C@@]2(C(=O)NS(=O)(=O)CC(=O)Nc2ccccc2)NC(=O)[C@@H]2C[C@@H](O)CN2C1=O

> 8.00
> 8.00
> 8.00
> 8.00
> 8.00
> 8.00
< 7.00

meta.source: patent US8048862B2
